experiment-summary: protein stability index of a GFP-peptide fusion (yeast GPS) (PSI 1-4); higher = more stable; sorted into four equal gates, so the index is relative within each strain
conditions: san1∆
Classification field: Fulfilled = protein stability index at or over 3; Not fulfilled = protein stability index under 3.

sequence-text	qualitative-label
DLSRIMDWLDNWGRKEH [ITC1]	Fulfilled
YYVGQVMRNNESTETGY [DIS3]	Fulfilled
YLFHNDRIIHTWRTQLA [ECM29]	Not fulfilled
KKSKNGTISKTGKKNKV [SRP14]	Fulfilled
IADELMKLDDSSKTRNV [ITC1]	Not fulfilled
LLENFANFKTSKKYQLA [RRP6]	Not fulfilled
IDKLMLSPSDQFAPAFL [SSN2]	Not fulfilled

protein stability index >= 3 for SGCDSTKPSLRKASCIW [ECM29] ? Not fulfilled

* * *

experiment-summary: protein stability index of a GFP-peptide fusion (yeast GPS) (PSI 1-4); higher = more stable; sorted into four equal gates, so the index is relative within each strain
conditions: doa10∆
readout: protein stability index
Give the figure by itself; no unit, no explanation.

Param item = INQYQLLYNLKNDILTN [SWI1] ; retrieve measured protein stability index. 1.63

Then GKEHIVAALVSLTEKFS [ECM29] ? 1.73

Then ALTQMDQDKVNFASGDN [RPB3] ? 3.33

* * *

experiment-summary: protein stability index of a GFP-peptide fusion (yeast GPS) (PSI 1-4); higher = more stable; sorted into four equal gates, so the index is relative within each strain
conditions: doa10∆
Quick reference: protein stability index of the listed items.
Give the figure by itself; no unit, no explanation.

Known protein stability index results, listed for orientation:
sequence-text	readout	quantitative-result
RSILQSLNPALQEKIST [SWI1]	protein stability index	2.45
ENSYLRGLTPQEFFFHA [RPO21]	protein stability index	2.49
TSPTMPDYYVSILSFVD [RPT2]	protein stability index	2.2
MVVNGPIPDARNAALRA [SCL1]	protein stability index	2.38
VLHVSAKGKSGVQTAYI [RRP40]	protein stability index	2.48

Param item = HAYNITFNNQDKGLLPY [RPO31] ; retrieve measured protein stability index. 2.64

Then DLSVTPQKSSSKGFVFN [YAR002W/NUP60] ? 2.74

Then YYGLVIDLLLLGQERAT [PRP8] ? 1.76

* * *

experiment-summary: protein stability index of a GFP-peptide fusion (yeast GPS) (PSI 1-4); higher = more stable; sorted into four equal gates, so the index is relative within each strain
conditions: san1∆
Classification field: t = protein stability index at or over 3; f = protein stability index under 3.

Look over these answered cases.
sequence-text	qualitative-label
VFHAAFEGDSNMLICAP [BRR2]	f
SAIVNEDGLLEGLDELP [SOH1]	f
NIPRRELKINLPLTEHK [SRB4]	t
ISLEALNFYITNVPKAK [SIR3]	f
QNISPVYSVDPLEKITD [PRP8]	f
WRQFGNRMQISPDQMRN [GRR1]	f
LKQNAIRARIPFYGSYT [SRP54]	f
DLLKLVHLSNGYKMIPG [FAS1]	f

protein stability index >= 3 for CDGDTVWDKFAVNLLNC [SSN2] ? t

Then VRELVEKIDGMDVDSVK [RPC82] ? t

Then SVLYPDELEDDTLNETN [RRP43] ? t

Then QMMQQAQQKLKQNPGLM [SRP54] ? t

Then HAYNITFNNQDKGLLPY [RPO31] ? f

Then NAIRIGELFLNESWKSS [SRP72] ? f

Then NVMLEKIKDNKEKIKNN [RPT5] ? f

Then LVIKSGKYTLGYKSTVK [RPL30] ? f

Then DLCDVVESKFTEKIKSM [RPC19] ? t

Then ADAGIELVDMAGAGEAN [MTR3] ? f

Then NKRLSRGKKGLKKKVVD [RPS1B] ? f

Then RDKKEKKQAQKQTKLRK [SMB1] ? t

* * *

experiment-summary: protein stability index of a GFP-peptide fusion (yeast GPS) (PSI 1-4); higher = more stable; sorted into four equal gates, so the index is relative within each strain
conditions: san1∆
Quick reference: protein stability index of the listed items.
Give the figure by itself; no unit, no explanation.

Known protein stability index results, listed for orientation:
sequence-text	protein stability index
SVGTDPMPIITFLSEWG [RPB2]	1.57
VSPTVGKLFSDIKVLKR [YIL149C/MLP2]	3.11
HDTLNNEIANSIIQSKQ [BRR2]	2.88
PISAVLRGCKFLQSVDI [GRR1]	1.83

Param item = ELENFLDNFETKTEALL [YJL041W/NSP1] ; retrieve measured protein stability index. 2.72

Then DIIMNPHGFPSRMTVGK [RET1] ? 2.79

Then HSFEDAHTPMLQMYSKI [FAS1] ? 2.82

* * *

experiment-summary: protein stability index of a GFP-peptide fusion (yeast GPS) (PSI 1-4); higher = more stable; sorted into four equal gates, so the index is relative within each strain
conditions: doa10∆
readout: protein stability index

sequence-text	readout	result
ALGEFADWDPESMAYTA [YML031W/NDC1]	protein stability index	3.52
EKADYERELISNIEQTE [YIL149C/MLP2]	protein stability index	3.34
TVELQVGLKNYDPQRDK [RPL1A]	protein stability index	3.05
LLYLRLKNIYVSADDFV [PRP8]	protein stability index	1.26
IHKIQNDNNLKKLESQE [RPN5]	protein stability index	3.08
MAPVKSQESINQKLALV [RPL30]	protein stability index	2.05

Param item = KESIVLPTVGFDFIKDN [YOR098C/NUP1] ; retrieve measured protein stability index. 2.39

Then VAARAEILRIHSRKMNL [RPT6] ? 2.59

Then GIIITDQSNVQYYLSVL [BRR2] ? 3.32

* * *

experiment-summary: protein stability index of a GFP-peptide fusion (yeast GPS) (PSI 1-4); higher = more stable; sorted into four equal gates, so the index is relative within each strain
conditions: doa10∆
Quick reference: protein stability index of the listed items.
Give the figure by itself; no unit, no explanation.

Known protein stability index results, listed for orientation:
sequence-text	protein stability index
DVNLDVRIHSIQVLTEA [IRR1]	2.19
FRTDMLQVADKFFRVKY [SMC3]	1.92
WDLQLQEKESQIQLAES [SMC4]	3.05
PQENDLESKMSEVGDAF [SMC3]	2.73
TPMDESSYDLLFNESFI [SRP72]	3.07

Param item = DDETPSCEVEEIGLLGG [SNU114] ; retrieve measured protein stability index. 3.13

Then MNKIFTIFKSGEIDFIK [YML103C/NUP188] ? 2.51

Then QGPRSYFLDVKCPGCLN [RPS27A] ? 2.93

Then NYEIVFDTVSNKLFTEP [YMR129W/POM152] ? 2.97

* * *

experiment-summary: protein stability index of a GFP-peptide fusion (yeast GPS) (PSI 1-4); higher = more stable; sorted into four equal gates, so the index is relative within each strain
conditions: pdr5∆
Classification field: 1 (yes) = protein stability index at or over 3; 0 (no) = protein stability index under 3.

Look over these answered cases.
sequence-text	qualitative-label
MIELICSSATVPKHMLD [AAR2]	0 (no)
VNETEAILYTKPGHVLQ [YGR119C/NUP57]	1 (yes)
DGGLEEETDEVSSESSD [SIR3]	1 (yes)

protein stability index >= 3 for LIPFIVKQVLLSVEIGV [NUT1] ? 0 (no)

Then IMNMIENVEKKEAALKT [SMC2] ? 0 (no)

Then KQSGFGGQTKPVFHKKA [RPL42A] ? 1 (yes)

Then DESYARAYRIIRAHQTE [QCR7] ? 1 (yes)

Then QEPFLNSSNYAELFNND [PRP8] ? 0 (no)

Then EIEVDEMEVDAEGEEVE [RPN1] ? 1 (yes)

Then RVIIQELRFPSPTPIQR [PRP28] ? 0 (no)

Then MKYIQTEQQIEIPEGVT [RPL9B] ? 0 (no)

Then RQMNLVITLLNNSSITL [YCS4] ? 0 (no)

Then YLFDEIDAALDKQYRTA [SMC3] ? 0 (no)

* * *

experiment-summary: protein stability index of a GFP-peptide fusion (yeast GPS) (PSI 1-4); higher = more stable; sorted into four equal gates, so the index is relative within each strain
conditions: pdr5∆
readout: protein stability index
Give the figure by itself; no unit, no explanation.

sequence-text	protein stability index
LQETLNKSTSSEAEYSK [YIL149C/MLP2]	2.9
NNNNAPIIIYGTENTER [YOR098C/NUP1]	2.69
DKITLHDEKTLAPSKHQ [SIR4]	2.68

Param item = KGLIKVNGSPITLVEPE [RPS16A] ; retrieve measured protein stability index. 3.42

Then LVADGVFYAELNEFFTR [RPS3] ? 3.1

Then DGLEKAAFNGVTFKDKY [FAS2] ? 1.57

Then THTNLERDEQKRAEKKA [SNF2] ? 3.45

Data provenance: the supplement of paper PMC9732359
